- Tested on: SK-MEL-5 melanoma
- assay notes: NCI tumour cell line growth inhibition, 48 h
Entries and their TGI

Consider the following illustrative entries.
compound | measured target | measured
C1=C\SS/C=C\SS/1 | SK-MEL-5 melanoma | > 100 µM
Cc1ccc(/C=C2\Cc3c(C)cc(C)cc3C2=O)c(C(=O)O)c1 | SK-MEL-5 melanoma | 85.2 µM
c1ccc(N2N=C(c3ccco3)CC2c2ccco2)cc1 (configuration not stated) | SK-MEL-5 melanoma | > 100 µM
CCOC(=O)c1cc2c3c(c(O)c(OC)c2s1)N(C(=O)c1cc2c4c(c(O)c(OC)c2s1)N(C(C)=O)CC4)CC3 | SK-MEL-5 melanoma | > 100 µM
O=C(N/N=C/c1ccccc1O)c1ccccc1 | SK-MEL-5 melanoma | > 100 µM

Value of TGI reported for the compound COc1cc(NC(C)=O)ccc1C(=O)NN1C(=O)/C(=C/c2ccco2)N=C1c1ccccc1 is > 50 µM

Value of TGI reported for the compound O=C(C(Cl)=C(N1CCOCC1)N1CCOCC1)C(Cl)Cl is > 100 µM

Value of TGI reported for the compound N#CNC(N)=Nc1ccc(Cl)cc1 is > 100 µM
